test system: HepG2; test: Growth inhibition of additional cancer cell lines; format: cell-based; conditions: Homo sapiens; HepG2, Liver; 50% inhibition of growth
Readout Name: IC50 (µM)
Enter your answer as a number in µM; do not include the unit.

response.value for `CCC(=O)N1CCc2cc(-c3ccc(C(=O)NCc4cccnc4)cc3)ccc21` (field: IC50) = 4.02

----------
system: AGS cells; assay: Cell viability in AGS cells (CellTiter Glo2, 8-point dose response, 4 days); type: cell-based, human; conditions: Homo sapiens, AGS, 96 h
Reported pIC50 values are given for each entry in this list.
Conceptually, pIC50 converts a concentration in mol/L into minus its log10.

Molecule: CCC(=O)N(C)c1ccc(-c2ccc(C(=O)NCc3cccnc3)cc2)cc1C [Compound I-215]
pIC50: 5.74

Turning now to a further record.
response.value for CCC(=O)N(C)c1ccc(-c2ccc(S(=O)(=O)NCc3cccnc3)cc2)cc1 [Compound I-226] (field: pIC50) = 5.01

----------
System: AGS cells
Assay: Cell viability in AGS cells (CellTiter Glo2, 8-point dose response, 4 days)
Assay type: cell-based, human
Details: Homo sapiens, AGS, 96 h
Description: AGS cells were treated with DMSO (no drug control) or each compound in Table 5 in an 8-point dose response for 4 days. Cell viability was measured using CellTiter Glo2. The IC50 of each compound was determined using CDD Vault.
Reported IC50 values are given for each entry in this list.
Enter your answer as a number in µM; do not include the unit.

A selection of reference data follows.
Compound: CCC(=O)N1CCc2cc(-c3ccc(C(=O)NCc4cccnn4)cc3)ccc21
Unit Spec: µM
IC50: 25.2
--
Compound: CC(=O)N(C)c1ccc(-c2ccc(C(=O)NCc3cccnc3)nc2)cc1
Unit Spec: µM
IC50: 10.3
--
Compound: CCC(=O)N1CCc2cc(-c3ccc(C(=O)NCc4cccnc4)cc3)c(C)cc21 (single isomer, unassigned)
Unit Spec: µM
IC50: 1.54
--
Compound: CCC(=O)N1CCc2cc(-c3ccc(C(=O)NCc4cccnc4)cc3F)ccc21
Unit Spec: µM
IC50: 3.17

Turning now to a further record.
response.value for `CCC(=O)N1CCc2nc(-c3ccc(C(=O)NCc4cccnc4)cc3)ccc21` (field: IC50) = 4.35

----------
tested on: AGS cells; assay: Cell viability in AGS cells (CellTiter Glo2, 8-point dose response, 4 days); format: cell-based, human; conditions: Homo sapiens, AGS, 96 h
Reported pIC50 values are given for each entry in this list.
Conceptually, pIC50 converts a concentration in mol/L into minus its log10.

A selection of reference data follows.
Compound Structure String: CCC(=O)N1CCc2cc(-c3ccc(C(=O)NCc4cncc(C)c4)cc3)ccc21
Measured Number: 5.97

Compound Structure String: CCC(=O)n1ncc2cc(-c3ccc(C(=O)NCc4cccnc4)cc3)ccc21
Measured Number: 5.11

Compound Structure String: CCC(=O)N1CCc2cc(-c3ccc(C(=O)NCc4ccc(C)nc4C)cc3)ccc21
Measured Number: 6.46

Compound Structure String: CCC(=O)N1CCc2c1ccc(-c1ccc(C(=O)NCc3cccnc3)cc1)c2C
Measured Number: 6.31

Compound Structure String: CCC(=O)N(C)c1ccc(-c2ccc(C(=O)NCc3ccc(C)nc3C)cc2)cc1
Measured Number: 6.22

Entry `CCC(=O)N1CCc2cc(N3CCN(C(=O)NCc4cccnc4)CC3)ccc21` ; assay system AGS cells; pIC50 recorded at 5.34

Entry `CCC(=O)N1CCc2cc(-c3ccc(S(=O)(=O)NCc4cccnc4)cc3)ccc21` ; assay system AGS cells; pIC50 recorded at 5.02
